Measured values drawn from patent US7915448B2 for this set.

TEST DETAILS: Half-life in Human Liver Microsomes (HLM)
CONDITION DESCRIPTION: human, human liver microsomes (HL101), pH 7.4
MEASURED ATTRIBUTE: half-life at 1 μM (min)

{"columns": ["COMPOUND", "OBSERVED MEASUREMENT"],
 "data": [
  ["C[C@@H](NC(=O)C1C[C@@H]1c1ccc(C(C)(C)C)c(F)c1)c1ccc(NS(C)(=O)=O)c(CO)c1 (stereo partly shown)", 23],
  ["Cc1cc([C@@H](C)NC(=O)C2CC2(C)c2ccc(S(=O)(=O)C(F)(F)F)cc2)ccc1NS(C)(=O)=O (stereo partly shown)", 38],
  ["CCc1cc([C@@H](C)NC(=O)[C@H]2C[C@@H]2c2ccc(C(F)(F)F)cc2)ccc1NS(C)(=O)=O", 39],
  ["CC[C@@H](NC(=O)[C@H]1C[C@@H]1c1cc(F)c(C(C)(C)C)c(F)c1)c1ccc(NS(C)(=O)=O)c(C)c1", 33],
  ["C[C@@H](NC(=O)[C@H]1C[C@@H]1c1cc(F)c(C(C)(C)C)c(F)c1)c1ccc(NS(C)(=O)=O)c(F)c1", 35],
  ["Cc1cc([C@@H](C)NC(=O)C2CC2(C)c2ccc(C(F)(F)F)nc2)ccc1NS(C)(=O)=O (single isomer, unassigned) [Example 57]", 91],
  ["C[C@@H](NC(=O)[C@H]1C[C@]1(C)c1ccc(C(F)(F)F)cc1)c1ccc(NS(C)(=O)=O)c(CO)c1", 37]
]}

---

TESTED TARGET: human VR1 receptors (Homo sapiens)
Construct: cell type not specified
TEST DETAILS: Human VR1 antagonist assay (Ca2+ imaging)
CONDITION DESCRIPTION: cells expressing human VR1, fura-2 Ca2+ imaging, FDSS 6000; capsaicin (300 nM) or acid (pH5.8) stimulation, table does not say which
Note to self: use T only for IC50 readings below 40 nM; a reading exactly at 40 nM still gets F.

{"columns": ["COMPOUND", "CLASS ASSIGNMENT"],
 "data": [
  ["Cc1nc([C@@H](C)NC(=O)C2CC2c2ccc(C(C)(C)C)cc2)ccc1NS(C)(=O)=O (single isomer, unassigned)", "F"],
  ["COCC(C)(C)c1ccc(C2(C)CC2C(=O)N[C@H](C)c2ccc(NS(C)(=O)=O)c(C)c2)cc1F (stereo partly shown)", "F"],
  ["C[C@@H](NC(=O)[C@H]1C[C@]1(C)c1ccc(C(F)(F)F)cc1)c1cc(F)c(NS(C)(=O)=O)cc1F", "T"],
  ["CC[C@@H](NC(=O)[C@H]1C[C@]1(C)c1ccc(C(F)(F)F)cc1)c1ccc(NS(C)(=O)=O)c(C)c1", "T"],
  ["C[C@@H](NC(=O)C1CC1c1ccc(C(C)(C)C)cc1)c1ccc(NS(C)(=O)=O)c(F)c1 (stereo partly shown)", "T"],
  ["Cc1cc([C@@H](C)NC(=O)C2CC2(C)c2ccc(C(F)(F)F)nc2)ccc1NS(C)(=O)=O (single isomer, unassigned) [Example 57]", "T"],
  ["CCC1(c2ccc(C(F)(F)F)cc2)CC1C(=O)N[C@H](C)c1ccc(NS(C)(=O)=O)c(F)c1 (stereo partly shown)", "T"]
]}

---

Readings of pIC50 for the listed molecules
TESTED TARGET: human VR1 receptors (Homo sapiens, UniProt Q8NER1)
Construct: cell type not specified
Sequence (Q8NER1 whole entry): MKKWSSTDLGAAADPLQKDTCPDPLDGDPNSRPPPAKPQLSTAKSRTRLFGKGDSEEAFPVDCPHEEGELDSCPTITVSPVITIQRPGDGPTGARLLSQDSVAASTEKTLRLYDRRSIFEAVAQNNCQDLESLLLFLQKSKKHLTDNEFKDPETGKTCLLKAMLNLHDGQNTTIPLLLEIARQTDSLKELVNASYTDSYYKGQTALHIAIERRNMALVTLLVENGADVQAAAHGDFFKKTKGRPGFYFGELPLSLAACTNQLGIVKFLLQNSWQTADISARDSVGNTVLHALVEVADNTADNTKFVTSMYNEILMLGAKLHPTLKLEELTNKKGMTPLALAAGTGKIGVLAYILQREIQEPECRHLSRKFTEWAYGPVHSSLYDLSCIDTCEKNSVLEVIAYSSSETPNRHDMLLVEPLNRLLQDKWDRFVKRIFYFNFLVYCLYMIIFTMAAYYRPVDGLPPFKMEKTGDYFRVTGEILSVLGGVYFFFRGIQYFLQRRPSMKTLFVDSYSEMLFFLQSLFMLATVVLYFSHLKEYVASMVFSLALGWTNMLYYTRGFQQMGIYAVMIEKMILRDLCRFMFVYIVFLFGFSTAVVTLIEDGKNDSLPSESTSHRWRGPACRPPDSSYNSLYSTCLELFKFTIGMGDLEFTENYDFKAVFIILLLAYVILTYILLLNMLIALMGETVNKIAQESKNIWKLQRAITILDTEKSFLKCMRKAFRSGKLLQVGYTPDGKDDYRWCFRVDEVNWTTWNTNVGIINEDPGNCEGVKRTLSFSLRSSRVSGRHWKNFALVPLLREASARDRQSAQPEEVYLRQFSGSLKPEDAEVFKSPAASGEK
TEST DETAILS: Human VR1 antagonist assay (Ca2+ imaging)
CONDITION DESCRIPTION: cells expressing human VR1, fura-2 Ca2+ imaging, FDSS 6000; capsaicin (300 nM) or acid (pH5.8) stimulation, table does not say which
Text: Human VR1 Antagonist Assay VR1 antagonistic activity can be determined by the Ca^2+ imaging assay using human VR1 highly expressing cells. The cells that highly express human VR1 receptors are obtainable from several different conventional methods. […] The capsaicin-induced changes in the intracellular calcium concentration were monitored using FDSS 6000 (Hamamatsu Photonics, Japan), a fluorometric imaging system. […]
pIC50: −log10 of the molar value.
MEASURED ATTRIBUTE: pIC50

{"columns": ["MOLECULE", "OBSERVED MEASUREMENT"],
 "data": [
  ["Cc1cc([C@@H](C)NC(=O)[C@H]2C[C@]2(C)c2ccc(C(F)(F)F)c(F)c2)c(F)cc1NS(C)(=O)=O", 9.15],
  ["Cc1cc([C@@H](C)NC(=O)[C@H]2C[C@]2(C)c2cc(F)c(C(C)(C)C)c(F)c2)ccc1NS(C)(=O)=O", 8.70],
  ["CC(C)(C)c1ccc(C2CC2C(=O)NCc2ccc(NS(C)(=O)=O)c(F)c2)cc1 (stereo not drawn)", 6.48]
]}

---

TEST DETAILS: Half-life in Human Liver Microsomes (HLM)
CONDITION DESCRIPTION: human, human liver microsomes (HL101), pH 7.4

{"columns": ["MOLECULE", "half-life at 1 μM"],
 "data": [
  ["Cc1cc([C@@H](C)NC(=O)[C@H]2C[C@]2(C)c2ccc(C(F)(F)F)cc2)ccc1NS(C)(=O)=O [Example 15]", "0.633 h"],
  ["CC[C@@H](NC(=O)[C@H]1C[C@]1(C)c1ccc(C(F)(F)F)cc1)c1ccc(NS(C)(=O)=O)cc1 [Example 31]", "> 2 h"],
  ["Cc1nc([C@@H](C)NC(=O)[C@H]2C[C@]2(C)c2ccc(C(F)(F)F)cc2)ccc1NS(C)(=O)=O [Example 14]", "> 2 h"]
]}

---

TEST DETAILS: Half-life in Human Liver Microsomes (HLM)
CONDITION DESCRIPTION: human, human liver microsomes (HL101), pH 7.4

{"columns": ["COMPOUND", "RELATION SIGN", "half-life at 1 μM, min"],
 "data": [
  ["Cc1nc([C@@H](C)NC(=O)C2CC2c2ccc(C(F)(F)F)cc2)ccc1NS(C)(=O)=O (single isomer, unassigned)", ">", 120],
  ["C[C@@H](NC(=O)C1CC1c1ccc(C(F)(F)F)cc1)c1ccc(NS(C)(=O)=O)c(CO)c1 (stereo partly drawn)", ">", 120],
  ["C[C@@H](NC(=O)C1CC1c1ccc(C(C)(C)C)nc1N1CCCCC1)c1ccc(NS(C)(=O)=O)c(F)c1 (stereo partly drawn)", "=", 4],
  ["CCc1nc([C@@H](C)NC(=O)C2C[C@]2(C)c2ccc(C(C)(C)C(F)(F)F)cc2)ccc1NS(C)(=O)=O (stereo partly drawn)", "=", 25],
  ["Cc1cc([C@@H](C)NC(=O)[C@H]2C[C@]2(C)c2ccc(C(F)(F)F)c(F)c2)c(F)cc1NS(C)(=O)=O", "=", 19.7],
  ["C[C@@H](NC(=O)[C@H]1C[C@]1(C)c1ccc(C(F)(F)F)cc1)c1cc(F)c(NS(C)(=O)=O)cc1F", ">", 120]
]}

---

TESTED TARGET: human VR1 receptors (Homo sapiens, UniProt Q8NER1)
Construct: cell type not specified
TEST DETAILS: Human VR1 antagonist assay (Ca2+ imaging)
CONDITION DESCRIPTION: cells expressing human VR1, fura-2 Ca2+ imaging, FDSS 6000; capsaicin (300 nM) or acid (pH5.8) stimulation, table does not say which
pIC50: −log10 of the molar value.
MEASURED ATTRIBUTE: pIC50

{"columns": ["COMPOUND", "TESTED TARGET", "OBSERVED MEASUREMENT"],
 "data": [
  ["CCc1nc([C@@H](C)NC(=O)[C@H]2C[C@]2(C)c2ccc(C(C)(C)C(F)(F)F)cc2)ccc1NS(C)(=O)=O [Example 35]", "human VR1 receptors (Homo sapiens, UniProt Q8NER1)", 6.81],
  ["Cc1cc([C@@H](C)NC(=O)C2CC2c2ccc(C(C)(C)C)c(F)c2)ccc1NS(C)(=O)=O (stereo partly shown) [Example 2]", "human VR1 receptors (Homo sapiens, UniProt Q8NER1)", 7.95],
  ["Cc1nc([C@@H](C)NC(=O)[C@H]2C[C@]2(C)c2ccc(C(F)(F)F)cc2)ccc1NS(C)(=O)=O [Example 14]", "human VR1 receptors (Homo sapiens, UniProt Q8NER1)", 6.69],
  ["Cc1nc([C@@H](C)NC(=O)C2CC2c2ccc(C(F)(F)F)cc2)ccc1NS(C)(=O)=O (single isomer, unassigned) [Example 56]", "human VR1 receptors (Homo sapiens, UniProt Q8NER1)", 5.90]
]}

---

Catalogue of compounds with associated half-life at 1 μM
TEST DETAILS: Half-life in Human Liver Microsomes (HLM)
CONDITION DESCRIPTION: human, human liver microsomes (HL101), pH 7.4

{"columns": ["COMPOUND", "half-life at 1 μM"],
 "data": [
  ["C[C@@H](NC(=O)[C@@H]1C[C@@]1(C)c1ccc(C(F)(F)F)c(F)c1)c1cc(F)c(NS(C)(=O)=O)c(F)c1", "> 120 min"],
  ["C[C@@H](NC(=O)[C@H]1C[C@]1(C)c1cc(F)c(C(C)(C)C)c(F)c1)c1ccc(NS(C)(=O)=O)c(F)c1", "29 min"],
  ["Cc1nc([C@@H](C)NC(=O)C2CC2c2ccc(C(C)(C)C)cc2)ccc1NS(C)(=O)=O (single isomer, unassigned)", "42 min"],
  ["Cc1nc([C@@H](C)NC(=O)C2CC2(C)c2ccc(C(C)(C)C(F)(F)F)cc2)ccc1NS(C)(=O)=O (stereo partly shown)", "42 min"]
]}
